# maps each entry to its pKi
Biological target: Norepinephrine transporter (Rattus norvegicus, UniProt Q9WTR4)
Sequence (Q9WTR4 whole entry): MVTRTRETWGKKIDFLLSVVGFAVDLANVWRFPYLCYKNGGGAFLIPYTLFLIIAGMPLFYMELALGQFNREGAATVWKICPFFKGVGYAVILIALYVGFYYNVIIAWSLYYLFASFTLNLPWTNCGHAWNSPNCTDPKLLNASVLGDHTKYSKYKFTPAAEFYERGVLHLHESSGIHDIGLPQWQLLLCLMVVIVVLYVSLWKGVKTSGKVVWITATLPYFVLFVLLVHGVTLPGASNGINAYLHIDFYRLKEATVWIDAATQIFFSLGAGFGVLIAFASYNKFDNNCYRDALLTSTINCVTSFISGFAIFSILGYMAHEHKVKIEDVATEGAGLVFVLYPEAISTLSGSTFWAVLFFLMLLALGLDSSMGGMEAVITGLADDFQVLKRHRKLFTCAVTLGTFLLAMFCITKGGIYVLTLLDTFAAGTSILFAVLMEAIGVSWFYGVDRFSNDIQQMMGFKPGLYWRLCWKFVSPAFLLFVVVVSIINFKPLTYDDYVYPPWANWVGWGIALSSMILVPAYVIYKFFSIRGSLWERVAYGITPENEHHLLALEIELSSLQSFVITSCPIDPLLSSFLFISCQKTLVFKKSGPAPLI
Experiment: Compound was tested for its ability to inhibit high-affinity uptake of [3H]NE into parietal and occipital cortex in rat
Scale explanation: pKi corresponds to minus log10 of a concentration expressed in moles per litre.

Use these answered entries as a reference point.
- compound: "CCCC1C(c2ccc(F)cc2)CC2C[C@H](F)C1N2C (stereo partly drawn)"
  pKi: 7.28
- compound: "CCCC1C(c2ccc(F)cc2)CC2CC(F)(F)C1N2C (stereo not drawn)"
  pKi: 5.42

Okay, now this compound:
Q: Query (compound): CCCC1C(c2ccc(F)cc2)CC2C[C@@H](F)C1N2C (stereo partly drawn) ; field requested: pKi
A: 6.90

---

Target: UniProt:P23977
Sequence (P23977 whole entry): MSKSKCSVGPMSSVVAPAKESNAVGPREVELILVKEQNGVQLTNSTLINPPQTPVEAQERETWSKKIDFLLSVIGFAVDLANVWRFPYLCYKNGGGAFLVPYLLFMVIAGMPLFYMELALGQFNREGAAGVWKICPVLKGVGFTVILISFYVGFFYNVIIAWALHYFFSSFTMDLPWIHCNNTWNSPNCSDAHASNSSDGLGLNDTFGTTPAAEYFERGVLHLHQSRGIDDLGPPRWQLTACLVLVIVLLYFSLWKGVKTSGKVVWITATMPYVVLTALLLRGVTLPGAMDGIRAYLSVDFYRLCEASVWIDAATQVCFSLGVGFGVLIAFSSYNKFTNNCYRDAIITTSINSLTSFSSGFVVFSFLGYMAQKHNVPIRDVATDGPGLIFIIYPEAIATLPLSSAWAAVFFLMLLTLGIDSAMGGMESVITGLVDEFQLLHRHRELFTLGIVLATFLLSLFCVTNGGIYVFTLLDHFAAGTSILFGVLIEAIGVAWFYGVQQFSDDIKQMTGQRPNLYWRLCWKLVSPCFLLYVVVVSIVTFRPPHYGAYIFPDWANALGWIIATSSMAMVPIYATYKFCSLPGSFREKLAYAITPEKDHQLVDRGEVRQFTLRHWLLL
Experiment: Compound was tested for its ability to inhibit high affinity uptake of [3H]DA into rat striatal membrane
Set-up: species or system Striatum
assay.readout: Ki (nM)
Use nM as the unit, but write only the number.

These solved cases illustrate the format of a correct answer.
- molecule: "CCCC1C(c2ccc(F)cc2)CC2C[C@@H](F)C1N2C (stereo partly drawn)"
  unit.tag: "nM"
  Ki: 304
- molecule: "CCCC1C(c2ccc(F)cc2)CC2CC(F)(F)C1N2C (stereo not drawn)"
  unit.tag: "nM"
  Ki: 1450

Q: # query: Ki of entry CCCC1C(c2ccc(F)cc2)CC2C[C@H](F)C1N2C (stereo partly drawn)
A: 49
